Test system: rat red blood cells
ASSAY INFO: Hemolytic activity test
Format: cell-based
Description: Peptides were obtained from GL Biochem (Shanghai, China), and their fidelity was further confirmed via matrix-assisted laser desorption/ionization time-of-flight mass spectroscopy (MALDI-TOF MS, Model Autoflex II, Bruker Daltonics Inc., U.S.A.), using α-cyano-4-hydroxycinnamic acid as matrix. […]
Ends that are not written are not given here.
TEST READOUT: hemolysis at the MIC against B. subtilis

In the examples that follow, each entry is paired with its recorded hemolysis at the MIC against B. subtilis.
For LLRRLLRRLLRRLLRR-NH2 [(LLRR)4, LLRRLLRRLLRRLLRR-NH2] , what is its reported hemolysis at the MIC against B. subtilis?
around 50%

For LLKKLLKKLLKK-NH2 [(LLKK)3, LLKKLLKKLLKK-NH2] , what is its reported hemolysis at the MIC against B. subtilis?
less than 5%

For LLKKLLKKLLKKLLKK-NH2 [(LLKK)4, LLKKLLKKLLKKLLKK-NH2] , what is its reported hemolysis at the MIC against B. subtilis?
~30%

For FFRRFFRRFFRRFFRR-NH2 [(FFRR)4, FFRRFFRRFFRRFFRR-NH2] , what is its reported hemolysis at the MIC against B. subtilis?
around 50%

For FFRRFFRRFFRR-NH2 [(FFRR)3, FFRRFFRRFFRR-NH2] , what is its reported hemolysis at the MIC against B. subtilis?
less than 5%

Moving on to the next substance.
For LLRRLLRRLLRR-NH2 [(LLRR)3, LLRRLLRRLLRR-NH2] , what is its reported hemolysis at the MIC against B. subtilis?
less than 5%
